Catalogue of substances with associated Percent inhibition of human Factor XI mRNA levels
# Tested on: human Factor XI mRNA
# Method Description: Antisense inhibition in HepG2 cells by microwalk gapmers, 8,000 nM, electroporation (Example 14)
# Assay type: cell-based
# Run Conditions: HepG2 cells, 8,000 nM
In the oligonucleotide strings, read from the 5' end, every base follows the letter of its sugar. An asterisk marks phosphorothioate; unmarked linkages are phosphodiester. Other units and linkages are bracketed, terminal groups are in braces. A string of capitals states the bases alone. e = 2'-O-(2-methoxyethyl) (MOE); [5mC] = 5-methylcytosine; d = 2'-deoxy (DNA)
Value Kind: Percent inhibition of human Factor XI mRNA levels

1) 445514 (antisense eG*eG*e[5mC]*eA*eG*e[5mC]*dG*dG*dA*d[5mC]*dG*dG*d[5mC]*dA*eT*eT*eG*eG*eT*eG) [compound 445514]    81%
2) 445498 (antisense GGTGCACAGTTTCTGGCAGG; 6-8-6 gapmer chemistry, chemistry not fully specified) [compound 445498]    83%
3) 445543 (antisense e[5mC]*eT*eG*eG*e[5mC]*dA*dG*d[5mC]*dG*dG*dA*d[5mC]*dG*eG*e[5mC]*eA*eT*eT) [compound 445543]    74%
4) 412223 (antisense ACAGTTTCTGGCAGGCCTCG; sugars from the 5' end e5 d10 e5, backbone and methylation of C not given here) [compound 412223]    62%
5) 445505 (antisense e[5mC]*eG*eG*e[5mC]*eA*eT*dT*dG*dG*dT*dG*d[5mC]*dA*d[5mC]*eA*eG*eT*eT*eT*e[5mC]) [compound 445505]    89%
6) 416858 (antisense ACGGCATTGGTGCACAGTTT; 5-10-5 gapmer, wing sugar chemistry not given here, further chemistry not given here) [compound 416858]    90%
7) 445511 (antisense eA*eG*e[5mC]*eG*eG*eA*d[5mC]*dG*dG*d[5mC]*dA*dT*dT*dG*eG*eT*eG*e[5mC]*eA*e[5mC]) [compound 445511]    77%
8) 445535 (antisense eG*eG*eA*e[5mC]*eG*dG*d[5mC]*dA*dT*dT*dG*dG*dT*eG*e[5mC]*eA*e[5mC]*eA) [compound 445535]    83%
9) 445534 (antisense eG*eA*e[5mC]*eG*eG*d[5mC]*dA*dT*dT*dG*dG*dT*dG*e[5mC]*eA*e[5mC]*eA*eG) [compound 445534]    82%
10) 445536 (antisense e[5mC]*eG*eG*eA*e[5mC]*dG*dG*d[5mC]*dA*dT*dT*dG*dG*eT*eG*e[5mC]*eA*e[5mC]) [compound 445536]    82%
11) 445515 (antisense eT*eG*eG*e[5mC]*eA*eG*d[5mC]*dG*dG*dA*d[5mC]*dG*dG*d[5mC]*eA*eT*eT*eG*eG*eT) [compound 445515]    75%
12) 445530 (antisense eG*e[5mC]*eA*eT*eT*dG*dG*dT*dG*d[5mC]*dA*d[5mC]*dA*eG*eT*eT*eT*e[5mC]) [compound 445530]    83%
13) 416848 (antisense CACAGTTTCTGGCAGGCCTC; 5-10-5 gapmer, wing sugar chemistry not given here, further chemistry not given here) [compound 416848]    87%
14) 412225 (antisense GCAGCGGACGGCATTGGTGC; sugars from the 5' end e5 d10 e5, backbone and methylation of C not given here) [compound 412225]    86%

* * *

# Test system: IL-1β, IL-6, IFN-γ, TNF-α, IL-8, MIP-1α, MCP-1, MIP-10, RANTES
# Method Description: Cynomolgus monkeys: cytokine and chemokine assays (Example 30)
# Format: in vivo
# Run Conditions: 25 mg/kg s.c.; day 55
In the oligonucleotide strings, read from the 5' end, every base follows the letter of its sugar. An asterisk marks phosphorothioate; unmarked linkages are phosphodiester. Other units and linkages are bracketed, terminal groups are in braces. A string of capitals states the bases alone. e = 2'-O-(2-methoxyethyl) (MOE); [5mC] = 5-methylcytosine; d = 2'-deoxy (DNA)
Respond with Yes for MIP-1β level values of 50 pg/mL and above, No for values below.

1) ISIS 449710: microwalk gapmer of Table 53 (antisense e[5mC]*eA*e[5mC]*dA*dG*dT*dT*dT*d[5mC]*dT*dG*dG*d[5mC]*eA*eG*eG)    Yes
2) ISIS 449711: microwalk gapmer of Table 53 (antisense eA*e[5mC]*dA*dG*dT*dT*dT*d[5mC]*dT*dG*dG*d[5mC]*eA*eG)    Yes
3) ISIS 449709: microwalk gapmer of Table 53 (antisense eG*e[5mC]*eA*e[5mC]*dA*dG*dT*dT*dT*d[5mC]*dT*dG*dG*d[5mC]*eA*eG*eG*e[5mC])    No
4) ISIS 445531: microwalk gapmer of Table 51 (antisense eG*eG*e[5mC]*eA*eT*dT*dG*dG*dT*dG*d[5mC]*dA*d[5mC]*eA*eG*eT*eT*eT)    Yes
5) ISIS 449708: microwalk gapmer of Table 53 (antisense eA*e[5mC]*eA*dG*dT*dT*dT*d[5mC]*dT*dG*dG*e[5mC]*eA*eG)    Yes
6) ISIS 445522: microwalk gapmer of Table 51 (antisense eG*e[5mC]*eA*e[5mC]*eA*dG*dT*dT*dT*d[5mC]*dT*dG*dG*e[5mC]*eA*eG*eG*e[5mC])    Yes
7) ISIS 416858: gapmer of Table 8 (antisense eA*e[5mC]*eG*eG*e[5mC]*dA*dT*dT*dG*dG*dT*dG*d[5mC]*dA*d[5mC]*eA*eG*eT*eT*eT)    No

* * *

# Method Description: Tolerability in Sprague-Dawley rats: hematology assays (Example 23)
# Assay type: in vivo
# Parameters: unit not given here
# Run Conditions: blood
Value Kind: Neutrophil

1) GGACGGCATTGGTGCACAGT (antisense; all C 5-methyl, all phosphorothioate, sugars by position not given here; MOE gapmer, 5-10-5) [ISIS 413482, 5-10-5 MOE gapmer]    1125
2) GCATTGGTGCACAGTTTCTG (antisense; all C 5-methyl, all phosphorothioate, sugars by position not given here; MOE gapmer, 5-10-5) [ISIS 412224, 5-10-5 MOE gapmer]    1865
3) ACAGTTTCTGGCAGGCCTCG (antisense; all C 5-methyl, all phosphorothioate, sugars by position not given here; MOE gapmer, 5-10-5) [ISIS 412223, 5-10-5 MOE gapmer]    1826
4) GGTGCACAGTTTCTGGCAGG (all C 5-methyl, all phosphorothioate, sugars by position not given here; MOE gapmer) [ISIS 413481, 5-10-5 MOE gapmer]    1046
5) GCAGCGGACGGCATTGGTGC (antisense; all C 5-methyl, all phosphorothioate, sugars by position not given here; MOE gapmer, 5-10-5) [ISIS 412225, 5-10-5 MOE gapmer]    1499

* * *

# Design: species or system Sprague-Dawley rats
# Run Conditions: rat, in vivo, sc, 20 mg/kg
e = 2'-O-(2-methoxyethyl) (MOE); d = 2'-deoxy (DNA)
Please note: Half-life in the liver and kidney exactly at 20 days is NOT MET. Only values below 20 days get MET.

1. 416848 (antisense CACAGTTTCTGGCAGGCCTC; 5-10-5 gapmer, wing sugar chemistry not given here, further chemistry not given here) [compound 416848]    NOT MET
2. 413481 (antisense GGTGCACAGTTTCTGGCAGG; sugars from the 5' end e5 d10 e5, backbone and methylation of C not given here) [compound 413481]    NOT MET
3. 412223 (antisense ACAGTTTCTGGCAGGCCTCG; sugars from the 5' end e5 d10 e5, backbone and methylation of C not given here) [compound 412223]    NOT MET
4. 416852 (antisense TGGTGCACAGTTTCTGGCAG; 5-10-5 gapmer, wing sugar chemistry not given here, further chemistry not given here) [compound 416852]    NOT MET
5. 416851 (antisense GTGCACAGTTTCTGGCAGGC; 5-10-5 gapmer, wing sugar chemistry not given here, further chemistry not given here) [compound 416851]    NOT MET
6. 416861 (antisense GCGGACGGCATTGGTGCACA; 5-10-5 gapmer, wing sugar chemistry not given here, further chemistry not given here) [compound 416861]    NOT MET
7. 412224 (antisense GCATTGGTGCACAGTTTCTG; sugars from the 5' end e5 d10 e5, backbone and methylation of C not given here) [compound 412224]    MET
8. 416867 (antisense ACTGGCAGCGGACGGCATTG; 5-10-5 gapmer, wing sugar chemistry not given here, further chemistry not given here) [compound 416867]    MET
9. 416860 (antisense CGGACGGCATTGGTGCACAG; 5-10-5 gapmer, wing sugar chemistry not given here, further chemistry not given here) [compound 416860]    NOT MET
10. 412225 (antisense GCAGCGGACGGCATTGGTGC; sugars from the 5' end e5 d10 e5, backbone and methylation of C not given here) [compound 412225]    NOT MET
11. 416859 (antisense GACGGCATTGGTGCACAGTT; 5-10-5 gapmer, wing sugar chemistry not given here, further chemistry not given here) [compound 416859]    MET
12. 416866 (antisense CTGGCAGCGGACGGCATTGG; 5-10-5 gapmer, wing sugar chemistry not given here, further chemistry not given here) [compound 416866]    MET
13. 416856 (antisense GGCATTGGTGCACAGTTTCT; 5-10-5 gapmer, wing sugar chemistry not given here, further chemistry not given here) [compound 416856]    MET
